Measured values drawn from paper PMC5540273 for this set.

Test system: STK35;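 further: KINOMEscan kinase panel screen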
Conditions: concentration: 1 μM, replicates: in singlicate; n = 1
MEASURED_ENDPOINT: %Inh (%)
Write the number in % without appending the unit.

Study these solved cases before continuing.
COc1cc2ncn(-c3cc(OCCCc4ccccc4)c(C(N)=O)s3)c2cc1OC
15
O=C(Nc1n[nH]c2cc(-c3ccccc3F)ccc12)C1CC1
11
COc1cc(Nc2nccc(N3CCC(NC(=O)C(C)c4ccc(Cl)cc4)C3)n2)cc(OC)c1OC (stereo not drawn)
0

Qu. Reported %Inh for COC(=O)c1c(-c2ccccc2)c2cc(Br)ccc2c(=O)n1Cc1ccc(NC(=O)CCC(=O)O)cc1 : what is it?
Ans. 0

Qu. Fill blank: measured %Inh of the molecule COc1ccc(CNC(=O)NC2CCN(c3ccnc(Nc4ccc(F)cc4)n3)C2)cc1 (stereo not drawn) is ____.
Ans. 0

Qu. Recorded %Inh of COc1cc2ncn(-c3cc(OCc4ccncc4Br)c(C(N)=O)s3)c2cc1OC , please.
Ans. 0

Qu. # query: %Inh of entry CCC(=O)c1c(-c2ccccc2)c2cc(Cl)ccc2c(=O)n1Cc1cc(C(=O)NC2CC2)n(C)n1
Ans. 51

Qu. If you can, please state the reported %Inh value of CCS(=O)(=O)c1ccc(OC)c(Nc2ncc(-c3ccc(F)cc3)o2)c1.Cl .
Ans. 0

Qu. What does the record list as %Inh for Cc1c(Cn2c(C)nn3c(=O)cc(N4CCO[C@H](C)C4)nc23)cccc1C(F)(F)F ?
Ans. 2

Qu. Quick one: %Inh of COc1cc2ncn(-c3cc(OCc4ccc(S(C)(=O)=O)cc4)c(C(N)=O)s3)c2cc1OC ?
Ans. 0

Qu. So what does the record say about %Inh for COc1ccc(-c2coc3ccc(-c4nnc(SCc5cccc(C#N)c5)o4)cc23)cc1 ?
Ans. 26

Qu. Name the reported %Inh value associated with the molecule COc1cc2nccc(Nc3cccc(Oc4ccccc4)c3)c2cc1OC.Cl
Ans. 0
